# Measurement target: T1, human IL-11 (human, UniProt P20809 22-199)
# T1 sequence: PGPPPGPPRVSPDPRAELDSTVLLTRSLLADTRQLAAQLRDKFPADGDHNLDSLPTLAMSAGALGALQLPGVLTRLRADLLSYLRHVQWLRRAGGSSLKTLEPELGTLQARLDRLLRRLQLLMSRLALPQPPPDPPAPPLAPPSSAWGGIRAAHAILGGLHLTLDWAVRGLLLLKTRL
# Measurement protocol: cell-based or functional assay
Outcome measure: RGA Efficacy (%)
Field format: number, assumed %, no unit text.

TPP-26310 (antibody, V domains shown) VH: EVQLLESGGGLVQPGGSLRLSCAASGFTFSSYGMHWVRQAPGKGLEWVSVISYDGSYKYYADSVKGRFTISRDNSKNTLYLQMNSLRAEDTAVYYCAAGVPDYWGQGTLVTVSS VL: QSVLTQPPSASGTPGQRVTISCTGSSSNIGAGYDVHWYQQLPGTAPKLLIYSNNERPWGVPDRFSGSKSGTSASLAISGLRSEDEADYYCAAWDDSLNGPVFGGGTKLTVL
59.5
TPP-26329 (antibody, V domains shown) VH: EVQLLESGGGLVQPGGSLRLSCAASGFTFSSWGMHWVRQAPGKGLEWVSVISYDGSYKYYADSVKGRFTISRDNSKNTLYLQMNSLRAEDTAVYYCAAGVPDYWGQGTLVTVSS VL: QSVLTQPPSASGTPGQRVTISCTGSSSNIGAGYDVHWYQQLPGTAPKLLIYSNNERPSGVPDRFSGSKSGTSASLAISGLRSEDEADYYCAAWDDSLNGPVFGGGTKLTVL
67.1
TPP-26304 (antibody, V domains shown) VH: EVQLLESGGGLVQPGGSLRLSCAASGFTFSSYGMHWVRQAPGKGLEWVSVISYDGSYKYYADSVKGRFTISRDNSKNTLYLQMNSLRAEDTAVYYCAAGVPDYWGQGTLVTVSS VL: QSVLTQPPSASGTPGQRVTISCTGSSSNIWAGYDVHWYQQLPGTAPKLLIYSNNERPSGVPDRFSGSKSGTSASLAISGLRSEDEADYYCAAWDDSLNGPVFGGGTKLTVL
70.4
TPP-26331 (antibody, V domains shown) VH: EVQLLESGGGLVQPGGSLRLSCAASGFTFSSYGGHWVRQAPGKGLEWVSVISYDGSYKYYADSVKGRFTISRDNSKNTLYLQMNSLRAEDTAVYYCAAGVPDYWGQGTLVTVSS VL: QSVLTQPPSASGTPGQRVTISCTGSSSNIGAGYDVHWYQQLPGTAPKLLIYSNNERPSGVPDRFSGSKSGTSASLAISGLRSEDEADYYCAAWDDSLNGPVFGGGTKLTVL
54.9

Value of RGA Efficacy (%) reported for the binder TPP-26306 (antibody, V domains shown) VH: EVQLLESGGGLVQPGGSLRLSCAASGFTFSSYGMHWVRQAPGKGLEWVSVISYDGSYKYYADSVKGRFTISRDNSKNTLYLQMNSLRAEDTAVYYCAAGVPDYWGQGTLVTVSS VL: QSVLTQPPSASGTPGQRVTISCTGSSSNIGAGYDVHWYQQLPGTAPKLLIYSNNERPSGVPDRFSGSKSGTSASLAISGLRSEDEADYYCAAWDQSLNGPVFGGGTKLTVL is 70
